# assay explanation: chemical genetic growth profiling, strain panel (AID 1159580);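 note: tested at 20 µM; growth read once vehicle control cultures reached saturation at 30 °C; 1 = growth at the plate median or of vehicle wells; lower values mean less growth of the strain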
# condition info: S. cerevisiae deletion strains, growth OD, locus YBR171W, strain sec66, stronger effect = lower value
In all, about 5,500 compounds went through this assay and about 2,000 (36%) were called active. About 18% were inconclusive and are not listed. The list shows a part of the results.
reported property: normalized growth

compound="C=CC(C1=CC(=O)C(OC)=CC1=O)c1ccc(OC)cc1 (stereo unspecified)" measured_number=0.983
compound=C=C[C@@H](C1=CC(=O)C(OC)=C(OC)C1=O)c1ccccc1 measured_number=0.996
compound=Nc1ccc(S(=O)(=O)Nc2ccccn2)cc1 measured_number=1.01
compound="C=CC(C1=CC(=O)C=CC1=O)c1ccccc1 (stereo unspecified)" measured_number=1.02
compound=CCN(CC)CCOc1ccc2c(c1)C(=O)c1cc(OCCN(CC)CC)ccc1-2 measured_number=0.979
compound="CN(C)CCOC(C)(c1ccccc1)c1ccccn1 (stereo unspecified)" measured_number=1

* * *

# assay explanation: chemical genetic growth profiling, strain panel (AID 1159580)
# condition info: S. cerevisiae deletion strains, growth OD, locus YOR083W, strain WHI5 (second series), stronger effect = lower value
Among all 5,500 compounds or so, about 2,000 (36%) were called active. Another 18% or so got no clear call; they are omitted. Some of the results follow.
The entries below are paired with their reported normalized growth.
reported property: normalized growth

molecule="CC(C)(C)NCC(O)c1ccccc1Cl (stereo not given)" reported_property="normalized growth" measured_number=1.02
molecule="Nc1ncnc2c1ncn2[C@@H]1O[C@H](CO)[C@H](O)C1O (stereo not given in full)" reported_property="normalized growth" measured_number=1.07
molecule="COc1cc(C(O)CN)ccc1O (stereo not given)" reported_property="normalized growth" measured_number=1.01
molecule=CC(C)NC[C@H](O)c1ccc(O)c(O)c1 reported_property="normalized growth" measured_number=1
molecule=CC(C)NC[C@@H](O)c1ccc(O)c(O)c1 reported_property="normalized growth" measured_number=1.04

* * *

# assay explanation: chemical genetic growth profiling, strain panel (AID 1159580);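 note: tested at 20 µM; growth read once vehicle control cultures reached saturation at 30 °C; 1 = growth at the plate median or of vehicle wells; lower values mean less growth of the strain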
# condition info: S. cerevisiae deletion strains, growth OD, locus YLR258W, strain gsy2, stronger effect = lower value
Hit rate of the full screen: of about 5,500 compounds, about 2,000 (36%) were called active. Another 18% or so got no clear call; they are omitted. The list shows a part of the results.
reported property: normalized growth

molecule=COc1cc(OC)c2c(=O)c(-c3ccccc3)c(C)oc2c1OC measured_number=0.987
molecule=CNC[C@@H](O)c1ccc(O)c(O)c1 measured_number=1.02
molecule=NC[C@H](O)c1ccc(O)c(O)c1 measured_number=1.01
molecule="CC1(C)C(=O)C=C[C@@]2(C)C1=C(O)C(=O)[C@]1(C)C2CC[C@@]2(C)[C@H](c3ccoc3)C[C@H]3O[C@]321 (stereo partly specified)" measured_number=0.88
molecule=Cc1occc(=O)c1O measured_number=0.973
molecule=CN[C@H](CC(=O)O)C(=O)O measured_number=1.02
molecule=CCN(CC)CCOc1ccc2c(c1)C(=O)c1cc(OCCN(CC)CC)ccc1-2 measured_number=0.979
molecule=Oc1c(Cl)cc(Cl)c2cccnc12 measured_number=0.0626
molecule=CCOP(=S)(OCC)SCn1c(=O)oc2cc(Cl)ccc21 measured_number=0.93
molecule=C=C(CC)C(=O)c1ccc(OCC(=O)O)c(Cl)c1Cl measured_number=1.02
molecule="CCCCC(CC)CN1CN(CC(CC)CCCC)CC(C)(N)C1 (stereo unspecified)" measured_number=0.0568
molecule="Cc1c(O)c(O)cc2c1CC=C1[C@@]2(C)CC[C@@]2(C)C3C[C@](C)(C(=O)O)CC[C@]3(C)CC[C@]12C (stereo partly specified)" measured_number=0.398
molecule="CC(C)NCC(O)c1ccc(O)c(O)c1 (stereo unspecified)" measured_number=0.979
molecule=N[C@@H](Cc1ccc(O)c(O)c1)C(=O)O measured_number=0.985
molecule="CN(C)CCOC(C)(c1ccccc1)c1ccccn1 (stereo unspecified)" measured_number=0.985
molecule=Oc1c(I)cc(Cl)c2cccnc12 measured_number=0.0743
molecule="O=C(OC1Cc2c(O)cc(O)cc2OC1c1cc(O)c(O)c(O)c1-c1c(C2Oc3cc(O)cc(O)c3CC2OC(=O)c2cc(O)c(O)c(O)c2)cc(O)c(O)c1O)c1cc(O)c(O)c(O)c1 (stereo unspecified)" measured_number=0.993
molecule=COc1ccc(C(Cl)=C(c2ccc(OC)cc2)c2ccc(OC)cc2)cc1 measured_number=1.02
molecule="CCC(Cc1c(I)cc(I)c(N)c1I)C(=O)O (stereo unspecified)" measured_number=0.909
molecule=Cc1ccc(/C(=C\CN2CCCC2)c2ccccn2)cc1 measured_number=0.986
molecule="COC(=O)C[C@H]1C(C)(C)C(=O)[C@@H]2CC3=C4CC(=O)O[C@@H](c5ccoc5)[C@]4(C)CCC3[C@@]1(C)C2=O (stereo partly specified)" measured_number=0.988

* * *

# assay explanation: chemical genetic growth profiling, strain panel (AID 1159580);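 note: tested at 20 µM; growth read once vehicle control cultures reached saturation at 30 °C; 1 = growth at the plate median or of vehicle wells; lower values mean less growth of the strain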
# condition info: S. cerevisiae deletion strains, growth OD, locus YPR167C, strain met16, stronger effect = lower value
Screen size: about 5,500 compounds; about 2,000 (36%) were called active. Another 18% or so got no clear call; they are omitted. This is one part of the list.
Listing of recorded normalized growth by entry.
reported property: normalized growth

compound="CN1C(CC(=O)c2ccccc2)CCCC1CC(O)c1ccccc1 (stereo not given)" measured_number=0.997
compound=CC(=O)Nc1ccc(S(=O)(=O)Nc2ccc([N+](=O)[O-])cc2)cc1 measured_number=0.992
compound=c1ccc2c3c([nH]c2c1)CNCC3 measured_number=0.992
compound=CCN(CC)CCNC(=O)c1cc(S(C)(=O)=O)ccc1OC measured_number=1.01
compound=COC(C)(C)CCC[C@H](C)C/C=C/C(C)=C/C(=O)OC(C)C measured_number=1.02

* * *

normalized growth values by entry
# assay explanation: chemical genetic growth profiling, strain panel (AID 1159580);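 note: tested at 20 µM; growth read once vehicle control cultures reached saturation at 30 °C; 1 = growth at the plate median or of vehicle wells; lower values mean less growth of the strain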
# condition info: S. cerevisiae deletion strains, growth OD, locus YJL166W, strain qcr8, stronger effect = lower value
In all, about 5,500 compounds went through this assay and about 2,000 (36%) were called active. Roughly 18% stayed inconclusive and do not appear here. The list shows a part of the results.
reported property: normalized growth

molecule="CN(C)CCOC(C)(c1ccccc1)c1ccccn1 (stereo not given)" reported_property="normalized growth" measured_number=1
molecule=Cc1c(Nc2ncccc2C(=O)O)cccc1C(F)(F)F reported_property="normalized growth" measured_number=0.994
molecule="O=c1[nH]c(=O)n(C2C[C@@H](O)[C@@H](CO)O2)cc1F (stereo not given in full)" reported_property="normalized growth" measured_number=1.01
molecule=N[C@@H](Cc1ccc(O)c(O)c1)C(=O)O reported_property="normalized growth" measured_number=0.997
molecule=Cc1ccsc1/C=C/C1=NCCCN1C reported_property="normalized growth" measured_number=0.994
molecule=CCN(CC)CCOc1ccc2c(c1)C(=O)c1cc(OCCN(CC)CC)ccc1-2 reported_property="normalized growth" measured_number=0.984
molecule=COc1c2c(cc3c1OCO3)CCN(C)C2 reported_property="normalized growth" measured_number=0.999
molecule="CCCC(C)C1(CC)C(=O)NC(=O)NC1=O (stereo not given)" reported_property="normalized growth" measured_number=1
molecule="CO[C@H]1/C=C/O[C@@]2(C)Oc3c(C)c(O)c4c(O)c(c(/C=N/N5CCN(C)CC5)c(O)c4c3C2=O)NC(=O)/C(C)=C\\C=C\\C(C)[C@H](O)[C@@H](C)[C@@H](O)[C@@H](C)[C@@H](OC(C)=O)[C@@H]1C (stereo not given in full)" reported_property="normalized growth" measured_number=1.02
molecule="C=C(C)C1CC=C(CO)CC1 (stereo not given)" reported_property="normalized growth" measured_number=0.972
molecule=CC(C)(C)NC[C@@H](O)COc1nsnc1N1CCOCC1 reported_property="normalized growth" measured_number=1.01
molecule="CC(=O)O[C@H]1C[C@@H](OC(C)=O)C(C)(C)C2C[C@@H](OC(C)=O)[C@@]3(C)C4=CC(=O)O[C@@H](c5ccoc5)[C@]4(C)CCC3[C@]21C (stereo not given in full)" reported_property="normalized growth" measured_number=0.994
molecule=C1CNCCN1 reported_property="normalized growth" measured_number=1.02
molecule=O=[N+]([O-])c1cc(O)c(O)c([N+](=O)[O-])c1 reported_property="normalized growth" measured_number=1.01
molecule=C[C@H](N)[C@H](O)c1ccc(O)c(O)c1 reported_property="normalized growth" measured_number=0.992
molecule="COC(=O)C[C@H]1C(C)(C)C(=O)[C@@H]2CC3=C4CC(=O)O[C@@H](c5ccoc5)[C@]4(C)CCC3[C@@]1(C)C2=O (stereo not given in full)" reported_property="normalized growth" measured_number=1.01
molecule="CC(C)(C)NCC(O)c1ccccc1Cl (stereo not given)" reported_property="normalized growth" measured_number=0.987
molecule="NC(=NCCC[C@H](N)C(=O)O)NC(CCC(=O)O)C(=O)O (stereo not given in full)" reported_property="normalized growth" measured_number=1.01
molecule="C=CC(C1=CC(=O)C=CC1=O)c1ccccc1 (stereo not given)" reported_property="normalized growth" measured_number=0.991
molecule=NCCCC[C@H](N[C@@H](CCc1ccccc1)C(=O)O)C(=O)N1CCC[C@H]1C(=O)O reported_property="normalized growth" measured_number=0.989
molecule=O=C(O)CF reported_property="normalized growth" measured_number=1
molecule=O=[N+]([O-])c1cc([As](=O)(O)O)ccc1O reported_property="normalized growth" measured_number=0.977
molecule=CN/C(=C\[N+](=O)[O-])NCCSCc1ccc(CN(C)C)o1 reported_property="normalized growth" measured_number=0.985
molecule=COc1cc(C(=O)NCc2ccc(OCCN(C)C)cc2)cc(OC)c1OC reported_property="normalized growth" measured_number=0.988
molecule=O=C(O)C1=CCNCC1 reported_property="normalized growth" measured_number=1.01
molecule=CCOC(=O)c1oc2c(OC)c(O)cc(O)c2c(=O)c1-c1cc(OC)c(OC)c(OC)c1 reported_property="normalized growth" measured_number=0.975
molecule="CC(C)NCC(O)c1ccc2ccccc2c1 (stereo not given)" reported_property="normalized growth" measured_number=1
molecule=CC(=O)NCCCCCC(=O)O reported_property="normalized growth" measured_number=1.01
molecule=CC(=O)Nc1ccc(S(=O)(=O)c2ccc(NC(C)=O)cc2)cc1 reported_property="normalized growth" measured_number=1.02
molecule=C/C=C/c1ccc2c(c1)OCO2 reported_property="normalized growth" measured_number=1.01
